conditions: human gut metagenome, 24 h, 2 µM; further: call rule not given here
test_readout: Bacterial Biotransformation

compound=COc1ccc2cc([C@H](C)C(=O)O)ccc2c1 test_readout="Bacterial Biotransformation" assay_value="Compound NOT metabolized"
compound="COc1ccc(CN2CCNCC2)c(OC)c1OC.Cl.Cl [TRIMETAZIDINE DIHYDROCHLORIDE]" test_readout="Bacterial Biotransformation" assay_value="Compound NOT metabolized"
compound="O=C1N=C([O-])NC1(c1ccccc1)c1ccccc1.[Na+] [PHENYTOIN SODIUM]" test_readout="Bacterial Biotransformation" assay_value="Compound NOT metabolized"
compound="CN1CCC(=C2c3ccccc3CC(=O)c3sccc32)CC1.O=C(O)/C=C/C(=O)O [KETOTIFEN FUMARATE]" test_readout="Bacterial Biotransformation" assay_value="Compound metabolized"
compound=C[C@]12C=CC(=O)C=C1CC[C@@H]1[C@@H]2C(=O)C[C@@]2(C)[C@H]1CC[C@]2(O)C(=O)CO test_readout="Bacterial Biotransformation" assay_value="Compound metabolized"
compound="COc1ccc(C(CN(C)C)C2(O)CCCCC2)cc1 (stereo not drawn)" test_readout="Bacterial Biotransformation" assay_value="Compound NOT metabolized"

For O=P1(N(CCCl)CCCl)NCCCO1 (stereo not drawn) [CYCLOPHOSPHAMIDE ANHYDROUS] , what is its reported Bacterial Biotransformation?
Compound metabolized

For `CC(C)(C)N.CCC[C@H](N[C@@H](C)C(=O)N1[C@H](C(=O)O)C[C@@H]2CCCC[C@@H]21)C(=O)OCC` , what is its reported Bacterial Biotransformation?
Compound metabolized

For `CNNCc1ccc(C(=O)NC(C)C)cc1` , what is its reported Bacterial Biotransformation?
Compound NOT metabolized

For CC1Cc2ccccc2N1NC(=O)c1ccc(Cl)c(S(N)(=O)=O)c1 (stereo not drawn) [INDAPAMIDE] , what is its reported Bacterial Biotransformation?
Compound NOT metabolized

For CCOC(=O)[C@H](CCc1ccccc1)N[C@@H](C)C(=O)N1CCC[C@H]1C(=O)O.O=C(O)/C=C\C(=O)O [ENALAPRIL MALEATE] , what is its reported Bacterial Biotransformation?
Compound NOT metabolized

* * *

settings: human gut metagenome, 24 h, 2 µM
test_readout: Bacterial Biotransformation

compound="O=P1(N(CCCl)CCCl)NCCCO1 (stereo not given) [CYCLOPHOSPHAMIDE ANHYDROUS]" assay_value="Compound NOT metabolized"
compound=CCS(=O)(=O)CCn1c([N+](=O)[O-])cnc1C assay_value="Compound metabolized"
compound=CC(=O)CCCCn1c(=O)c2c(ncn2C)n(C)c1=O assay_value="Compound NOT metabolized"
compound="COc1cc2nc(N3CCN(C(=O)C4COc5ccccc5O4)CC3)nc(N)c2cc1OC.CS(=O)(=O)O (stereo not given) [DOXAZOSIN MESYLATE]" assay_value="Compound NOT metabolized"

For `O=C1CC2(CCCC2)CC(=O)N1CCCCN1CCN(c2ncccn2)CC1` , what is its reported Bacterial Biotransformation?
Compound metabolized

* * *

settings: human gut metagenome, 24 h, 2 µM
test_readout: Bacterial Biotransformation

compound="CN1CCC(=C2c3ccccc3CC(=O)c3sccc32)CC1.O=C(O)/C=C/C(=O)O [KETOTIFEN FUMARATE]" assay_value="Compound NOT metabolized"
compound=N#Cc1ccc2[nH]cc(CCCCN3CCN(c4ccc5oc(C(N)=O)cc5c4)CC3)c2c1 assay_value="Compound NOT metabolized"
compound="CCOc1ccccc1OCCN[C@H](C)Cc1ccc(OC)c(S(N)(=O)=O)c1.Cl [TAMSULOSIN HYDROCHLORIDE]" assay_value="Compound NOT metabolized"

* * *

experiment: The drug is tested on Z-025 corresponding to rabbit gut metagenome with ENA study accession number: PRJEB37062 and ENA sample accession number: ERS12561824 for biotransformation under anaerobic condition. The drug concentrations were measured over 9 timepoints collected between 0 and 24 hours of incubation by liquid-chromatography-coupled mass spectrometry (LC–MS); settings: 2 µM
test_readout: Bacterial Biotransformation

Sample records with Bacterial Biotransformation:
compound=CCc1oc2ccccc2c1C(=O)c1cc(Br)c(O)c(Br)c1 test_readout="Bacterial Biotransformation" assay_value="Compound NOT metabolized"
compound=CC#C[C@]1(O)CC[C@H]2[C@@H]3CCC4=CC(=O)CCC4=C3[C@@H](c3ccc(N(C)C)cc3)C[C@@]21C test_readout="Bacterial Biotransformation" assay_value="Compound NOT metabolized"
compound=COc1ccc(Cc2nccc3cc(OC)c(OC)cc23)cc1OC test_readout="Bacterial Biotransformation" assay_value="Compound metabolized"
compound=N=C(N)NC(=O)Cc1c(Cl)cccc1Cl test_readout="Bacterial Biotransformation" assay_value="Compound NOT metabolized"
compound=CN[C@H]1CC[C@@H](c2ccc(Cl)c(Cl)c2)c2ccccc21 test_readout="Bacterial Biotransformation" assay_value="Compound metabolized"
compound="O=P1(N(CCCl)CCCl)NCCCO1 (stereo unspecified) [CYCLOPHOSPHAMIDE ANHYDROUS]" test_readout="Bacterial Biotransformation" assay_value="Compound NOT metabolized"

For CCN(CC)C(=O)C1(c2ccccc2)CC1CN (stereo unspecified) , what is its reported Bacterial Biotransformation?
Compound NOT metabolized

For `O=C(CCCN1CCC2(CC1)C(=O)NCN2c1ccccc1)c1ccc(F)cc1` , what is its reported Bacterial Biotransformation?
Compound NOT metabolized

For CC(=O)Nc1ccc(OC(C)=O)cc1 [DIACETAMATE] , what is its reported Bacterial Biotransformation?
Compound metabolized

For `CC(C)(C)N.CCC[C@H](N[C@@H](C)C(=O)N1[C@H](C(=O)O)C[C@@H]2CCCC[C@@H]21)C(=O)OCC` , what is its reported Bacterial Biotransformation?
Compound NOT metabolized

For CC(=O)OCC(=O)[C@@]1(OC(C)=O)[C@@H](C)C[C@H]2[C@@H]3C[C@H](F)C4=CC(=O)C=C[C@]4(C)[C@@]3(F)[C@@H](O)C[C@@]21C [DIFLORASONE DIACETATE] , what is its reported Bacterial Biotransformation?
Compound NOT metabolized

* * *

assay: The drug is tested on Z-016 corresponding to mouse gut metagenome with ENA study accession number: PRJEB37062 and ENA sample accession number: ERS12561815 for biotransformation under anaerobic condition. The drug concentrations were measured over 9 timepoints collected between 0 and 24 hours of incubation by liquid-chromatography-coupled mass spectrometry (LC–MS); details: 2 µM
test_readout: Bacterial Biotransformation

compound="CCCCCNC(=N)N/N=C/c1c[nH]c2ccc(OC)cc12.O=C(O)/C=C\\C(=O)O [TEGASEROD MALEATE]" assay_value="Compound NOT metabolized"
compound="COc1cc(C(=O)NCc2ccc(OCCN(C)C)cc2)cc(OC)c1OC [TRIMETHOBENZAMIDE]" assay_value="Compound NOT metabolized"

* * *

experiment: The drug is tested on WLS-073 corresponding to human gut metagenome with ENA study accession number: PRJEB37062 and ENA sample accession number: ERS12561749 for biotransformation under anaerobic condition. The drug concentrations were measured over 9 timepoints collected between 0 and 24 hours of incubation by liquid-chromatography-coupled mass spectrometry (LC–MS); conditions: 2 µM
test_readout: Bacterial Biotransformation

Sample records with Bacterial Biotransformation:
molecule="CCCCCNC(=N)N/N=C/c1c[nH]c2ccc(OC)cc12.O=C(O)/C=C\\C(=O)O [TEGASEROD MALEATE]" test_readout="Bacterial Biotransformation" assay_value="Compound metabolized"
molecule="COCCCC/C(=N\\OCCN)c1ccc(C(F)(F)F)cc1.O=C(O)/C=C\\C(=O)O [FLUVOXAMINE MALEATE]" test_readout="Bacterial Biotransformation" assay_value="Compound NOT metabolized"
molecule="CN(CCOc1ccc(CC2SC(=O)NC2=O)cc1)c1ccccn1.O=C(O)/C=C\\C(=O)O (centres undefined) [ROSIGLITAZONE MALEATE]" test_readout="Bacterial Biotransformation" assay_value="Compound NOT metabolized"
molecule="CC(=O)Oc1ccc(C(c2ccc(OC(C)=O)cc2)c2ccccn2)cc1 [BISACODYL]" test_readout="Bacterial Biotransformation" assay_value="Compound metabolized"
molecule="CC(=O)OCC(CCn1cnc2cnc(N)nc21)COC(C)=O [FAMCICLOVIR]" test_readout="Bacterial Biotransformation" assay_value="Compound metabolized"

Pending molecule:
For CC(C)c1c(CN(C)C(C)Cc2ccccc2)n(C)n(-c2ccccc2)c1=O (centres undefined) [FAMPROFAZONE] , what is its reported Bacterial Biotransformation?
Compound metabolized

* * *

assay: The drug is tested on Z-007 corresponding to rat gut metagenome with ENA study accession number: PRJEB37062 and ENA sample accession number: ERS12561807 for biotransformation under anaerobic condition. The drug concentrations were measured over 9 timepoints collected between 0 and 24 hours of incubation by liquid-chromatography-coupled mass spectrometry (LC–MS); conditions: 2 µM
test_readout: Bacterial Biotransformation

Sample records with Bacterial Biotransformation:
compound="CCN1CCCC1CNC(=O)c1cc(S(=O)(=O)CC)c(N)cc1OC (configuration not stated) [AMISULPRIDE]" assay_value="Compound NOT metabolized"
compound="CCOC(=O)[C@H](CCc1ccccc1)N[C@@H](C)C(=O)N1CCC[C@H]1C(=O)O.O=C(O)/C=C\\C(=O)O [ENALAPRIL MALEATE]" assay_value="Compound NOT metabolized"
compound="CC(C)(C)NC[C@H](O)COc1nsnc1N1CCOCC1.O=C(O)/C=C\\C(=O)O [TIMOLOL MALEATE]" assay_value="Compound NOT metabolized"
compound="COC(=O)C(c1ccccc1)C1CCCCN1 (configuration not stated) [METHYLPHENIDATE]" assay_value="Compound NOT metabolized"
compound=C[C@]12CCC(=O)C=C1[C@@H]1C[C@@H]1[C@H]1[C@@H]3[C@@H]4C[C@@H]4[C@@]4(CCC(=O)O4)[C@@]3(C)CC[C@@H]12 assay_value="Compound NOT metabolized"

For CCOc1ccccc1OCCN[C@H](C)Cc1ccc(OC)c(S(N)(=O)=O)c1.Cl [TAMSULOSIN HYDROCHLORIDE] , what is its reported Bacterial Biotransformation?
Compound NOT metabolized
